experiment: aqueous solubility; assay type: physicochemical; conditions: water
Experimental readout: solubility

Given item CCCCCCCCCCCCCCCCOC(=O)NCCSC[C@H](NC(C)=O)C(=O)N[C@@H](CO)C(=O)NCCCN(C)C , the value recorded as its solubility is > 10000 µg/mL

---

test: aqueous solubility; format: physicochemical; conditions: water

| Molecule | aqueous solubility |
| --- | --- |
| CCCCCCCCCCCCCCCC(=O)OCCSC[C@H](NC(C)=O)C(=O)N[C@@H](COC(=O)CCC(=O)O)C(=O)OC [Compound 14] | highly water soluble |
| CCCCCCCCCCCCCCCC(=O)OCCSC[C@H](NC(C)=O)C(=O)N[C@@H](COC(=O)[C@@H](N)CCCCN)C(=O)OC [Compound 12] | highly water soluble |
| CCCCCCCCCCCCCCCC(=O)OCCSC[C@H](NC(C)=O)C(=O)N[C@@H](CCCCN)C(=O)OC [Compound 10] | highly water soluble |
| CCCCCCCCCCCCCCCC(=O)OCCSC[C@H](NC(C)=O)C(=O)N[C@@H](COS(=O)(=O)O)C(=O)OC [Compound 13] | highly water soluble |

---

target: human TLR2 (Homo sapiens); assay: human TLR2-specific NF-κB reporter gene assay; type: cell-based; settings: hTLR2-Agonistic Activity (EC50 in nM), human TLR2-specific reporter gene assay
Sequence (O60603 21-784): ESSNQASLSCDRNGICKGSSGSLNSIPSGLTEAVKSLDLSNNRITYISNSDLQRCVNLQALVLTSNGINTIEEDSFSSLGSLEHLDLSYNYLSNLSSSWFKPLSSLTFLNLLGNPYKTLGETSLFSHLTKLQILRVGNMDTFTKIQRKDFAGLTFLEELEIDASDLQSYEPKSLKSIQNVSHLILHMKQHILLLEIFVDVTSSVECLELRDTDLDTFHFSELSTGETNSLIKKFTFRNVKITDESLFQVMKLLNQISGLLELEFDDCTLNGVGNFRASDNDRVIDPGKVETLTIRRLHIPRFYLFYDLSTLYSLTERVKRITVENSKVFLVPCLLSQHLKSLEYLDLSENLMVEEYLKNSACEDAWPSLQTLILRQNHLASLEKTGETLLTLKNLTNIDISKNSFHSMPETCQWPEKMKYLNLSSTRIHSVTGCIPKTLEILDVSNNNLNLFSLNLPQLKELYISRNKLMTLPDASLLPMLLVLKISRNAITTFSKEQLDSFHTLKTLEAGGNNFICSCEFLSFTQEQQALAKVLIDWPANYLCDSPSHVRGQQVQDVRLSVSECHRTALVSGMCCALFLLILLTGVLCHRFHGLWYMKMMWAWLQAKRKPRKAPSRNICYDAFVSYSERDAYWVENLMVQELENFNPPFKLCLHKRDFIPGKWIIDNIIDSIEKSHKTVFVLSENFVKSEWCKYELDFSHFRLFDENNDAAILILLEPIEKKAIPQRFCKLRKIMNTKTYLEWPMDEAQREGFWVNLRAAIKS
Records here are stratified by EC50; strata: interval 1 = under 0.8 nM, interval 2 = from 0.8 nM up to 6 nM, interval 3 = 6 nM and over

Ask | Which band does CCCCCCCCCCCCCCCCOC(=O)NCCSC[C@H](NC(C)=O)C(=O)N[C@@H](CO)C(=O)OC fall in?
Reply | interval 1

Ask | For this compound, which bin applies? CCCCCCCCCCCCCCCC(=O)OCCSC[C@H](NC(C)=O)C(=O)N[C@@H](COC(=O)CCC(=O)O)C(=O)OC
Reply | interval 1

Ask | Any idea which band CCCCCCCCCCCCCCCCOC(=O)NCCSC[C@H](NC(C)=O)C(=O)N[C@@H](CO)C(=O)NCCCN(C)C is in?
Reply | interval 1

Ask | Category of CCCCCCCCCCCCCCCCn1cc(CCSC[C@H](NC(C)=O)C(=O)N[C@@H](CO)C(=O)OC)nn1 , please.
Reply | interval 3

Ask | Lab log: CCCCCCCCCCCCCc1cn(CCSC[C@H](NC(C)=O)C(=O)N[C@@H](CO)C(=O)OC)nn1 — assign EC50 category
Reply | interval 3

Ask | Assign a bin to CCCCCCCCCCCCCCCC(=O)OCCSC[C@H](NC(C)=O)C(=O)N[C@@H](CCCCN)C(=O)OC
Reply | interval 2

Ask | Each compound maps to one class by EC50. Which class for CCCCCCCCCCCCCCCC(=O)OCCSC[C@H](NC(C)=O)C(=O)N[C@@H](COC(=O)[C@@H](N)CCCCN)C(=O)OC ?
Reply | interval 2

Ask | Categorize the following entry: CCCCCCCCCCCCCCCC(=O)NCCSC[C@H](NC(C)=O)C(=O)N[C@@H](CO)C(=O)OC
Reply | interval 3

Ask | Band for CCCCCCCCCCCCCCCC(=O)OCCSC[C@H](NC(C)=O)C(=O)N[C@@H](COC(=O)c1cccnc1)C(=O)OC ?
Reply | interval 1
